- System Tested: APE1 NΔ42 (human, UniProt P27695 43-318, del1-42)
- Sequence (P27695 43-318, stated change not applied): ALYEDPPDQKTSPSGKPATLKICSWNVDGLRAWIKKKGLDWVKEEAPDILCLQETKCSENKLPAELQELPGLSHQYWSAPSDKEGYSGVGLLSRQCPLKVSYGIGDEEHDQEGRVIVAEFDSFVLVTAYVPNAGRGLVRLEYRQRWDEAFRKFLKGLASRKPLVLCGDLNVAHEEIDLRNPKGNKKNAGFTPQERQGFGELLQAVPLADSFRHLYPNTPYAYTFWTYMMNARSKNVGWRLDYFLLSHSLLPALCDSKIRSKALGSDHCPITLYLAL
- Test Summary: fluorescence polarization; 50 mM KCl, 1 mM MgCl2; FP: 50 mM Tris-HCl pH 7.5, 50 mM KCl, 1 mM MgCl2, 1 mM DTT, 0.1 mM EDTA, 10 nM oligo, 30 min RT, read at 25 C; Trp quenching: same buffer, 500 nM APE1, 20 C
- Details: protein: recombinant; label: 5'-6-FAM; parallel G4 (CD), prefolded in 50 mM KCl

{"Binder": "AGGGCGGTGTGGGAAGAGGGAAGAGGGGGAGG (structured_DNA) [G4-forming KRAS oligo (32R), 6-FAM]", "Kd / nM": 313}

The origin of these recorded values is paper PMC8990529.
